assay: Pharmacokinetic experiment on mice (iv and ig); format: in vivo; conditions: mouse, plasma; BALB/c Mice, iv, 1.00 mg/kg
parameter measured: AUC
Answer with the value and then the unit.

Examples from the recorded data:
molecule	AUC
Cc1nn(C2CCC(=O)NC2=O)c2cncc(N3CCN(C[C@H]4CC[C@H](n5cc6cc(NC(=O)c7cnn8cccnc78)c(N7CCO[C@H](C)C7)cc6n5)CC4)CC3)c12 (stereo partly shown)	3220 ng·h/mL
Cc1nn(C2CCC(=O)NC2=O)c2cccc(N3CC4CN(C[C@H]5CC[C@H](n6cc7cc(NC(=O)c8cnn9cccnc89)c(N8CCOCC8)cc7n6)CC5)CC4C3)c12 (stereo partly shown)	790 ng·h/mL
Cc1nn(C2CCC(=O)NC2=O)c2cccc(N3CCN(C[C@H]4CC[C@H](n5cc6cc(NC(=O)c7cnn8cccnc78)c(N7CCOCC7)cc6n5)CC4)CC3)c12 (stereo partly shown)	63100 ng·h/mL

// below: AUC requested for another molecule
Requested read-out: AUC. Entry: Cc1nn(C2CCC(=O)NC2=O)c2cccc(N3CCC4(CC3)CN(C[C@H]3CC[C@H](n5cc6cc(NC(=O)c7cnn8cccnc78)c(N(C)C)cc6n5)CC3)C4)c12 (stereo partly shown)
3390 ng·h/mL

Value source: patent US20260146044A1
